Data provenance: patent US9290476B2

target: human RORγt LBD (Homo sapiens (Human)); assay: RORγt reporter assay (GAL4-RORγt LBD luciferase in HEK293T cells); format: cell-based; details: HEK293T cells, 24 hours compound treatment
Sequence (P51449 258-518): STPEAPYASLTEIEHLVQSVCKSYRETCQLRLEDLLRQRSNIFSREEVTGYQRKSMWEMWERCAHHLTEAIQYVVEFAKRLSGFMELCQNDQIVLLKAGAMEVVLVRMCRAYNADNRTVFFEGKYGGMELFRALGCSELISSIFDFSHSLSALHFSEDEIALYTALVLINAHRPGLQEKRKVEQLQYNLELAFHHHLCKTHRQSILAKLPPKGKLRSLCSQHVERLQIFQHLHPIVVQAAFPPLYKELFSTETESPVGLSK
quantity measured: IC50 (µM)
Report the value in µM with no unit label.

For orientation, consider the following solved cases.
[
  {
    "compound": "Cn1cncc1C(O)(c1ccc(Cl)cc1)c1ccc2nc(Cl)c(Cc3ccccc3)c(Cl)c2c1 (stereo not drawn)",
    "reported result": 0.35
  },
  {
    "compound": "COc1ccc(C(O)(c2ccc3nc(OC)c(Cc4ccc(-n5cccn5)cc4)c(Cl)c3c2)c2cncs2)cn1 (single isomer, unassigned) [Example 20C]",
    "reported result": 0.06
  },
  {
    "compound": "COc1nc2ccc(C(O)(c3ccc(C(F)(F)F)nc3)c3cncn3C)cc2c(Cl)c1Cc1ccc(C(F)(F)F)nc1 (single isomer, unassigned) [Example 94C]",
    "reported result": 0.16
  },
  {
    "compound": "CCOc1nc2ccc(C(O)(c3cncs3)c3cncn3C)cc2c(Cl)c1Cc1ccc(-n2cccn2)cc1 (stereo not drawn)",
    "reported result": 0.038
  },
  {
    "compound": "COc1nc2ccc(C(N)(c3ccc(C)nc3C)c3cnnn3C)cc2c(Cl)c1Cc1ccc(C(F)(F)F)cc1 (single isomer, unassigned) [Example 87C]",
    "reported result": 0.012
  }
]

// moving on: another record for IC50
// returns reported IC50 for input Cc1cc(C(O)(c2ccc(Cl)cc2)c2cncn2C)cc2c(Cl)c(Cc3ccc(-n4cccn4)cc3)c(Cl)nc12 (stereo not drawn) [Example 27]
0.29

###

system: IL-17 production by CD4 T cells; assay: Human Th17 assay (IL-17 production by CD4 T cells under Th17 differentiation); type: cell-based; details: human CD4+ T cells, IL-17 after 3 days; read-out: Human Th17 Assay, IC50 μM
quantity measured: log10 of IC50 (log10 of the value in µM)
Remember, log10 of IC50, in µM.

Answered cases to consult:
[
  {
    "compound": "COc1nc2ccc(C(O)(c3ccc(C)nc3C)c3cnnn3C)cc2c(Cl)c1Cc1ccc(C(F)(F)F)cc1 (single isomer, unassigned) [Example 77C]",
    "tested on": "IL-17 production by CD4 T cells",
    "log10 of IC50": -2.68
  },
  {
    "compound": "Cn1cncc1C(O)(c1ccc(Cl)cc1)c1ccc2nc(C#N)c(Cc3ccc(-n4cccn4)cc3)c(C#N)c2c1 (single isomer, unassigned) [Example 71B]",
    "tested on": "IL-17 production by CD4 T cells",
    "log10 of IC50": -1.96
  },
  {
    "compound": "COc1nc2ccc(C(O)(c3cncn3C)C3CCN(C(C)=O)CC3)cc2c(Cl)c1Cc1ccc(-n2cccn2)cc1 (single isomer, unassigned) [Example 60C]",
    "tested on": "IL-17 production by CD4 T cells",
    "log10 of IC50": -0.80
  },
  {
    "compound": "COc1nc2ccc(C(O)(c3cnnn3C)C3CN(C(C)=O)C3)cc2c(Cl)c1Cc1ccc(C(F)(F)F)cc1 (single isomer, unassigned) [Example 97C]",
    "tested on": "IL-17 production by CD4 T cells",
    "log10 of IC50": -1.82
  },
  {
    "compound": "COc1nc2c(C)cc(C(O)(c3ccc(C(F)(F)F)nc3)c3cncn3C)cc2c(Cl)c1Cc1ccc(-n2cccn2)cc1 (single isomer, unassigned) [Example 29B]",
    "tested on": "IL-17 production by CD4 T cells",
    "log10 of IC50": -0.72
  }
]

Provide value of log10 of IC50 for this record tested with IL-17 production by CD4 T cells: COc1nc2ccc(C(O)(c3ccc(C(F)(F)F)nc3)c3cncn3C)cc2c(Cl)c1Cc1ccc(C(F)(F)F)nc1 (single isomer, unassigned) [Example 94B]
0.28

GET /values?readout=log10 of IC50&system=IL-17 production by CD4 T cells&item= CON(C)c1nc2ccc(C(O)(c3ccc(C(F)(F)F)nc3)c3cncn3C)cc2c(Cl)c1Cc1ccc(-n2cccn2)cc1 (single isomer, unassigned) [Example 67B]
-2.00

For the record Cn1cncc1C(O)(c1ccc(C(F)(F)F)nc1)c1ccc2nc(N3CCC3)c(Cc3ccc(-n4cccn4)cc3)c(Cl)c2c1 (single isomer, unassigned) [Example 68B] , what value of log10 of IC50 is listed for IL-17 production by CD4 T cells?
-2.00

What measured log10 of IC50 is associated with Cn1cncc1C(O)(c1ccc(Cl)cc1)c1ccc2nc(C#N)c(Cc3ccc(-n4cccn4)cc3)c(C#N)c2c1 (single isomer, unassigned) [Example 71C] on IL-17 production by CD4 T cells?
-0.52

State its log10 of IC50 on IL-17 production by CD4 T cells: Cc1cc(C(O)(c2ccc(C#N)cc2)c2cncn2C)cc2c(C#N)c(Cc3ccc(-n4cccn4)cc3)c(C#N)nc12 (single isomer, unassigned) [Example 66B]
0.04

log10 of IC50 of COc1nc2ccc(C(O)(c3ccc(C#N)cc3)c3cncn3C)cc2c(C#N)c1Cc1ccc(C(F)(F)F)cc1 (single isomer, unassigned) [Example 96B] on IL-17 production by CD4 T cells?
-1.30
